system: HCT116 human colorectal carcinoma cells; experiment: CellTiter-Glo Luminescent Cell Viability Assay; assay type: cell-based; conditions: HCT-116, 72 h, 3 days
pEC50: −log10 of the molar value.
TEST READOUT: pEC50

1) CCn1ncc(S(=O)(=O)Nc2ccc(F)c3c(C#N)c[nH]c23)c1N ... 6.00 to 6.60
2) Cc1ccc(NS(=O)(=O)c2cnn(CC(=O)NC3CC(F)(F)C3)c2)c2[nH]cc(C#N)c12 ... < 6.00
3) CC(C)(CO)n1cc(S(=O)(=O)Nc2ccc(Cl)c3c(C#N)c[nH]c23)cn1 ... > 6.60
4) CC(C)(O)Cn1cc(S(=O)(=O)Nc2ccc(F)c3c(C#N)c[nH]c23)c(F)n1 ... < 6.00
